# MEASURED ON: Corticotropin-releasing factor receptor 1 (Homo sapiens, UniProt P34998)
# Sequence (P34998 whole entry): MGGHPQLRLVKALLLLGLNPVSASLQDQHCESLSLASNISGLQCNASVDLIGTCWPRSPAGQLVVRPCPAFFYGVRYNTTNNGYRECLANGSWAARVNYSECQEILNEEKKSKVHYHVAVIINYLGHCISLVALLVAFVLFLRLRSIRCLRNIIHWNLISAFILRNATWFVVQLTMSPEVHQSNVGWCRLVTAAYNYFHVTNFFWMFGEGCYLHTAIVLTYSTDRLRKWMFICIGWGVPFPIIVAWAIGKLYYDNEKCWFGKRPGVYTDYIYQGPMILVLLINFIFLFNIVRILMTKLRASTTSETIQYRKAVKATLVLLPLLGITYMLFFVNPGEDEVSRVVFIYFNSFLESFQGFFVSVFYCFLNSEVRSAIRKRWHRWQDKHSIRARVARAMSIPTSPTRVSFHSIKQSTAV
# EXPERIMENTAL DETAILS: Inhibition of [125I]o-CRF binding to human Corticotropin releasing factor receptor 1 expressed in CHO cells.
# Format: cell-based
REPORTED PROPERTY: pKi
Quick note: pKi values are minus log10 of concentrations in mol/L.

Exercise: // fetch pKi; item: `CCCN(CCC)c1nc(-c2ccc(Cl)cc2Cl)n(CCO)n1` ; system: Corticotropin-releasing factor receptor 1 (Homo sapiens, UniProt P34998)
Key: 7.85

Exercise: // fetch pKi; item: `CCCN(c1nc(-c2ccc(Cl)cc2OC)n(C)n1)C(C1CC1)C1CC1` ; system: Corticotropin-releasing factor receptor 1 (Homo sapiens, UniProt P34998)
Key: 7.59

Exercise: // fetch pKi; item: `CCCN(c1nc(-c2ccc(Cl)cc2Cl)n(C)n1)C(C1CC1)C1CC1` ; system: Corticotropin-releasing factor receptor 1 (Homo sapiens, UniProt P34998)
Key: 8.05

Exercise: // fetch pKi; item: `CCCN(c1n[nH]c(-c2ccc(Cl)cc2Cl)n1)C(C1CC1)C1CC1` ; system: Corticotropin-releasing factor receptor 1 (Homo sapiens, UniProt P34998)
Key: 5.62

Exercise: // fetch pKi; item: `CCCN(c1nc(-c2ccc(Cl)cc2)n(C)n1)C(C1CC1)C1CC1` ; system: Corticotropin-releasing factor receptor 1 (Homo sapiens, UniProt P34998)
Key: 7.48

Exercise: // fetch pKi; item: `C=CCn1nc(N(CCC)C(C2CC2)C2CC2)nc1-c1c(C)cc(C)cc1C` ; system: Corticotropin-releasing factor receptor 1 (Homo sapiens, UniProt P34998)
Key: 5.66

Exercise: // fetch pKi; item: `CCCN(c1nc(-c2ccc(Cl)cc2C)n(C)n1)C(C1CC1)C1CC1` ; system: Corticotropin-releasing factor receptor 1 (Homo sapiens, UniProt P34998)
Key: 7.66

Exercise: // fetch pKi; item: `CCCN(c1nc(-c2ccc(Br)cc2C)n(C)n1)C(C1CC1)C1CC1` ; system: Corticotropin-releasing factor receptor 1 (Homo sapiens, UniProt P34998)
Key: 8.00

Exercise: // fetch pKi; item: `CCCN(c1nc(-c2c(C)cc(C)cc2C)n(CC)n1)C(C1CC1)C1CC1` ; system: Corticotropin-releasing factor receptor 1 (Homo sapiens, UniProt P34998)
Key: 6.51

Exercise: // fetch pKi; item: `CCCN(c1nc(-c2ccc(Cl)cc2Cl)n(CC)n1)C(C1CC1)C1CC1` ; system: Corticotropin-releasing factor receptor 1 (Homo sapiens, UniProt P34998)
Key: 7.10

Exercise: // fetch pKi; item: `CCCN(CCC)c1nc(-c2ccc(Cl)cc2Cl)n(C)n1` ; system: Corticotropin-releasing factor receptor 1 (Homo sapiens, UniProt P34998)
Key: 5.59

Exercise: // fetch pKi; item: `CCCN(c1nc(-c2cc(F)c(Cl)cc2Cl)n(C)n1)C(C1CC1)C1CC1` ; system: Corticotropin-releasing factor receptor 1 (Homo sapiens, UniProt P34998)
Key: 7.82

Exercise: // fetch pKi; item: `CCCN(c1nc(-c2c(C)cc(C)cc2C)n(C)n1)C(C1CC1)C1CC1` ; system: Corticotropin-releasing factor receptor 1 (Homo sapiens, UniProt P34998)
Key: 6.92
